Data credit: ChEMBL document CHEMBL5214960

- MEASUREMENT_DESCRIPTION: AUC(0 to 12 hrs) in Sprague-Dawley rat plasma at 30 mg/kg, po measured after 24 hrs by LC-MS/MS analysis
- Type: ADME, organism-based
- Parameters: time 24 hrs, dose 30 mg/kg, route po
- REPORTED_CONDITIONS: in vivo
Quick reference for AUC among some compounds
Lab book: enter the figure in µM·h, no units written.

compound=O=C(CS(=O)(=O)O)Nc1ccc(N2CCOCC2)c(Br)c1 result_value=1.23
compound=Cc1c(Br)cc(NC(=O)NS(=O)(=O)O)cc1Br result_value=42.8
compound="Cc1c(Br)cc(NC(=O)C(c2ccccc2)S(=O)(=O)O)cc1Br (centres undefined)" result_value=37.1

Now consider the entry below.
GET /values?readout=AUC&item= Cc1c(Br)cc(NC(=O)CS(=O)(=O)O)cc1Br
21.1

---

- MEASURED_ON: Low molecular weight phosphotyrosine protein phosphatase (Rattus norvegicus, UniProt P41498)
- Sequence (P41498 whole entry): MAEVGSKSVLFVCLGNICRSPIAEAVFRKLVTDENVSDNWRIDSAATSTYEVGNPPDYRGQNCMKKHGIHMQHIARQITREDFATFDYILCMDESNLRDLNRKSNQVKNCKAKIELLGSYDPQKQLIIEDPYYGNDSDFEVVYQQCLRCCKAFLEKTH
MEASURED_QUANTITY: IC50 (nM)
Lab book: enter the figure in nM, no units written.

compound=O=C(CS(=O)(=O)O)Nc1ccc(N2CCOCC2)c(Br)c1 result_value=36
compound=Cc1c(Br)cc(NC(=O)NS(=O)(=O)O)cc1Br result_value=3
compound="Cc1c(Br)cc(NC(=O)C(c2ccccc2)S(=O)(=O)O)cc1Br (centres undefined)" result_value=300

Now consider the entry below.
GET /values?readout=IC50&item= Cc1c(Br)cc(NC(=O)CS(=O)(=O)O)cc1Br
62

---

- MEASUREMENT_DESCRIPTION: Metabolic stability in mouse hepatic microsome at 4 uM measured after 30 mins by LC-MS analysis
- Type: ADME
- REPORTED_CONDITIONS: liver microsomes, read-out: Stability
MEASURED_QUANTITY: remaining at 0.5 h, 4 µM (%)
Lab book: enter the figure in %, no units written.

compound=O=C(CS(=O)(=O)O)Nc1nc2ccc([N+](=O)[O-])cc2s1 unit_annotation=% result_value=4
compound=N.O=C(Nc1nc2ccccc2s1)NS(=O)(=O)O unit_annotation=% result_value=0
compound=O=C(CS(=O)(=O)O)Nc1ccc(N2CCOCC2)c(Br)c1 unit_annotation=% result_value=3
compound="Cc1c(Br)cc(NC(=O)C(c2ccccc2)S(=O)(=O)O)cc1Br (stereo not drawn)" unit_annotation=% result_value=50

GET /values?readout=remaining at 0.5 h, 4 µM&item= O=C(Nc1nc2ccccc2s1)C(c1ccccc1)S(=O)(=O)O (stereo not drawn)
17

// next record O=C(CS(=O)(=O)O)Nc1nc2ccccc2s1
3

// next record Cc1c(Br)cc(NC(=O)NS(=O)(=O)O)cc1Br
30

// next record Cc1c(Br)cc(NC(=O)CS(=O)(=O)O)cc1Br
0

---

- MEASURED_ON: CYP3A4 (Homo sapiens, UniProt P08684)
- Sequence (P08684 whole entry): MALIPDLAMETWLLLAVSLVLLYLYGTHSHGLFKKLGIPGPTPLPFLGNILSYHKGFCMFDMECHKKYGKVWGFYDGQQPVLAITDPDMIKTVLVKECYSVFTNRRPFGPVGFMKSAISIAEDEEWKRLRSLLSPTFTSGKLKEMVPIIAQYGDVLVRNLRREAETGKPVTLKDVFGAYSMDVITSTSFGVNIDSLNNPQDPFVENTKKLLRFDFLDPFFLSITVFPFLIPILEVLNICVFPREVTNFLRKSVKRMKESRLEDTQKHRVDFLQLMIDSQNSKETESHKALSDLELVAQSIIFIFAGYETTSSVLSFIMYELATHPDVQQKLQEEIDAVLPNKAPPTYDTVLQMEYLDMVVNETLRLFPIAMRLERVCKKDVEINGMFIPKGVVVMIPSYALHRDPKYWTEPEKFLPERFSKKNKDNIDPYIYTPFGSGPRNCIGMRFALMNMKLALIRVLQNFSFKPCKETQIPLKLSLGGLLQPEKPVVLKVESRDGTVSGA
- MEASUREMENT_DESCRIPTION: Inhibition of human hepatic CYP3A4 using midazolam as substrate measured after 3 mins by LC-MS analysis relative to control
- Type: ADME, tissue-based
- Parameters: concentration or dose not given beside the values
- REPORTED_CONDITIONS: human hepatic CYP3A4 (liver), probe midazolam
Quick reference for inhibition at 0.05 h among some compounds
Lab book: enter the figure in %, no units written.

compound=Cc1c(Br)cc(NC(=O)NS(=O)(=O)O)cc1Br unit_annotation=% result_value=0
compound=Cc1c(Br)cc(NC(=O)CS(=O)(=O)O)cc1Br unit_annotation=% result_value=15
compound=N.O=C(Nc1nc2ccccc2s1)NS(=O)(=O)O unit_annotation=% result_value=4
compound="Cc1c(Br)cc(NC(=O)C(c2ccccc2)S(=O)(=O)O)cc1Br (stereo not drawn)" unit_annotation=% result_value=0
compound="O=C(Nc1nc2ccccc2s1)C(c1ccccc1)S(=O)(=O)O (stereo not drawn)" unit_annotation=% result_value=9

Short answer please: inhibition at 0.05 h, CYP3A4 (Homo sapiens, UniProt P08684), entry O=C(CS(=O)(=O)O)Nc1nc2ccc([N+](=O)[O-])cc2s1
0

// next record O=C(CS(=O)(=O)O)Nc1ccc(N2CCOCC2)c(Br)c1
36

// next record O=C(CS(=O)(=O)O)Nc1nc2ccccc2s1
6

---

- MEASURED_ON: RNA polymerase II subunit A C-terminal domain phosphatase SSU72 (Homo sapiens, UniProt Q9NP77)
- Sequence (Q9NP77 whole entry, the tested form may be a part): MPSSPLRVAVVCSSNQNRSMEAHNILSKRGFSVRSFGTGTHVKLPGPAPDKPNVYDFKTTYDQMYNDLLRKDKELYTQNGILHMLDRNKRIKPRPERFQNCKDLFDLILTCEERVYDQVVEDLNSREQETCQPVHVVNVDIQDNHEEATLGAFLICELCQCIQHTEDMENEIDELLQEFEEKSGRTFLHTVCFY
- MEASUREMENT_DESCRIPTION: Inhibition of SSU72 (unknown origin)
MEASURED_QUANTITY: IC50

GET /values?readout=IC50&item= Cc1c(Br)cc(NC(=O)NS(=O)(=O)O)cc1Br
> 10 µM

---

Quick reference for t1/2 among some compounds
- MEASUREMENT_DESCRIPTION: Half life in CD-1 mouse plasma at 10 mg/kg, po measured after 8 hrs by LC-MS/MS analysis
- Format: ADME, organism-based
- REPORTED_CONDITIONS: in vivo
Lab book: enter the figure in h, no units written.

# count of solved cases: 3
compound="Cc1c(Br)cc(NC(=O)C(c2ccccc2)S(=O)(=O)O)cc1Br (centres undefined)" measured_quantity=t1/2 unit_annotation=h result_value=5.2
compound=Cc1c(Br)cc(NC(=O)NS(=O)(=O)O)cc1Br measured_quantity=t1/2 unit_annotation=h result_value=4.2
compound=Cc1c(Br)cc(NC(=O)CS(=O)(=O)O)cc1Br measured_quantity=t1/2 unit_annotation=h result_value=4.2

Now consider the entry below.
GET /values?readout=t1/2&item= O=C(CS(=O)(=O)O)Nc1ccc(N2CCOCC2)c(Br)c1
4.2

---

- MEASURED_ON: UniProt Q13332
- Sequence (Q13332 whole entry): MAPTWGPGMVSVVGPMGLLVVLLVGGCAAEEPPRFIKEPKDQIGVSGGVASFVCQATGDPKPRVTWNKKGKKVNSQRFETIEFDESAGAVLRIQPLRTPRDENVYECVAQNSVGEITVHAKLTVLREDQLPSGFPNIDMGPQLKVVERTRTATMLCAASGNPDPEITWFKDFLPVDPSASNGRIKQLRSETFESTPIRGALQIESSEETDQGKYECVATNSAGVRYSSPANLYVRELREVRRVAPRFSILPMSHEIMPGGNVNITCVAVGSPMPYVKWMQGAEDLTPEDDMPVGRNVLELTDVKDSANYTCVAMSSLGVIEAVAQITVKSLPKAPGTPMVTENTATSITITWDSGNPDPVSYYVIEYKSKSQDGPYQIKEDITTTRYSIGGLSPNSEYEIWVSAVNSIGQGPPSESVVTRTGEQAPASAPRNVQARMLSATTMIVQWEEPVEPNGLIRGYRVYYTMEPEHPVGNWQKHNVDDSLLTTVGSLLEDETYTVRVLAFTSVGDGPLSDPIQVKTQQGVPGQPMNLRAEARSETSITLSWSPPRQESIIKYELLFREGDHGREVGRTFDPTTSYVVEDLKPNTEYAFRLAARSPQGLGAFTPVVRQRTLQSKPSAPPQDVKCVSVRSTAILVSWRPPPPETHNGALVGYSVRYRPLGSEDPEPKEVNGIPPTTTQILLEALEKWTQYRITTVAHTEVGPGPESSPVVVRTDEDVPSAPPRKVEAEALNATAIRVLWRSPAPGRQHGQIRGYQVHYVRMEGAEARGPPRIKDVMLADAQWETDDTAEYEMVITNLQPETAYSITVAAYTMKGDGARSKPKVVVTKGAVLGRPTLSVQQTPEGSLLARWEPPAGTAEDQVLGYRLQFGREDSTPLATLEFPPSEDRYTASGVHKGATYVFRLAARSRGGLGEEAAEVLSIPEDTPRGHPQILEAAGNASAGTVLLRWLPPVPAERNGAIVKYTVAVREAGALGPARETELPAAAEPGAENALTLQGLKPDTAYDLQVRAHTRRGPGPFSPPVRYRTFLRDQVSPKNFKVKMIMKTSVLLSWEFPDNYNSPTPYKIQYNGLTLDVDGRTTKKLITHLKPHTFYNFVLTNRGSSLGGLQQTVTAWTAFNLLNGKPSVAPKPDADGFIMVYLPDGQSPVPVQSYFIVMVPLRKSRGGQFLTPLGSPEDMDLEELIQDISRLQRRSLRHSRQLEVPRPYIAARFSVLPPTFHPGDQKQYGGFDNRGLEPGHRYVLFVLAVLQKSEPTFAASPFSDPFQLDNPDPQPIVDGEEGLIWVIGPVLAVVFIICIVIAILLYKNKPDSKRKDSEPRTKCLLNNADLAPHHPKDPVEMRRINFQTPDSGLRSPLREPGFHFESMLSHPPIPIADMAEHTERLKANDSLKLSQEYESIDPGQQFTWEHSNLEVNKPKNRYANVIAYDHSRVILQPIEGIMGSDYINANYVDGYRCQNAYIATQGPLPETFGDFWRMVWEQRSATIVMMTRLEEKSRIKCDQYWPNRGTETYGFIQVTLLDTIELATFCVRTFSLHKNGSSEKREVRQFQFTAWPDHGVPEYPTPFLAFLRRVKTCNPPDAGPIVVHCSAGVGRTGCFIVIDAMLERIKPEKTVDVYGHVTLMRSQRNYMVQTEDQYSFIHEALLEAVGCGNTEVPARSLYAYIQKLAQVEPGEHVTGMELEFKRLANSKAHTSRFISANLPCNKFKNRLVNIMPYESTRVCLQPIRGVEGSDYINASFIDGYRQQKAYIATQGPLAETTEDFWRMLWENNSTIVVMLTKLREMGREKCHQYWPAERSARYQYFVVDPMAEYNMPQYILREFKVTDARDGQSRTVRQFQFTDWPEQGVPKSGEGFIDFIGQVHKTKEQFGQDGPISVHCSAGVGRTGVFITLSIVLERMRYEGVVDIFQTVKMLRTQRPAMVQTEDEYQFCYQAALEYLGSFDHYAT
MEASURED_QUANTITY: IC50

GET /values?readout=IC50&item= Cc1c(Br)cc(NC(=O)NS(=O)(=O)O)cc1Br
> 10 µM

---

Quick reference for fCmax among some compounds
- MEASUREMENT_DESCRIPTION: Unbound Cmax in plasma of CD-1 mouse at 2 mg/kg, iv measured after 8 hrs by LC-MS/MS analysis
- Format: ADME, organism-based
- REPORTED_CONDITIONS: in vivo

compound="Cc1c(Br)cc(NC(=O)C(c2ccccc2)S(=O)(=O)O)cc1Br (centres undefined)" result_value="< 30 nM"
compound=Cc1c(Br)cc(NC(=O)NS(=O)(=O)O)cc1Br result_value="322 nM"
compound=Cc1c(Br)cc(NC(=O)CS(=O)(=O)O)cc1Br result_value="< 16 nM"

Now consider the entry below.
GET /values?readout=fCmax&item= O=C(CS(=O)(=O)O)Nc1ccc(N2CCOCC2)c(Br)c1
1966 nM

---

- MEASURED_ON: CYP2D6 (Homo sapiens, UniProt P10635)
- Sequence (P10635 whole entry): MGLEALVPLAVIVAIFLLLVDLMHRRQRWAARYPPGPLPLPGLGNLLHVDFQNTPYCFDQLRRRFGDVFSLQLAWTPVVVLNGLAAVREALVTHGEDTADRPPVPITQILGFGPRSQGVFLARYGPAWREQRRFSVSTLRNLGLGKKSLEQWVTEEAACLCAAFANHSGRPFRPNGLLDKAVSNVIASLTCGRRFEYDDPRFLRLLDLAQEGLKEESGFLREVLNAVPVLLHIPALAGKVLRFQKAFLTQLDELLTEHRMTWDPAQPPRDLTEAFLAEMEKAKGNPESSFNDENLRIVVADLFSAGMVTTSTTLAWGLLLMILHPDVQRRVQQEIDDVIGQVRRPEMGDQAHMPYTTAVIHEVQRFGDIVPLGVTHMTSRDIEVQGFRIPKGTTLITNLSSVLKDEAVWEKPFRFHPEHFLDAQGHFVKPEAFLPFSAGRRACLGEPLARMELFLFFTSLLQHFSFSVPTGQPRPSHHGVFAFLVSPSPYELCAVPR
- MEASUREMENT_DESCRIPTION: Inhibition of human hepatic CYP2D6 using bufuralol HCL as substrate measured after 3 mins by LC-MS analysis relative to control
- Assay type: ADME, tissue-based
- Parameters: concentration or dose not given beside the values
- REPORTED_CONDITIONS: human hepatic CYP2D6 (liver), probe bufuralol HCl
Quick reference for inhibition at 0.05 h among some compounds
Lab book: enter the figure in %, no units written.

# count of solved cases: 7
compound="O=C(Nc1nc2ccccc2s1)C(c1ccccc1)S(=O)(=O)O (stereo not drawn)" measured_on="CYP2D6 (Homo sapiens, UniProt P10635)" measured_quantity="inhibition at 0.05 h" result_value=5
compound=O=C(CS(=O)(=O)O)Nc1nc2ccc([N+](=O)[O-])cc2s1 measured_on="CYP2D6 (Homo sapiens, UniProt P10635)" measured_quantity="inhibition at 0.05 h" result_value=1
compound=O=C(CS(=O)(=O)O)Nc1nc2ccccc2s1 measured_on="CYP2D6 (Homo sapiens, UniProt P10635)" measured_quantity="inhibition at 0.05 h" result_value=0
compound=Cc1c(Br)cc(NC(=O)CS(=O)(=O)O)cc1Br measured_on="CYP2D6 (Homo sapiens, UniProt P10635)" measured_quantity="inhibition at 0.05 h" result_value=1
compound=O=C(CS(=O)(=O)O)Nc1ccc(N2CCOCC2)c(Br)c1 measured_on="CYP2D6 (Homo sapiens, UniProt P10635)" measured_quantity="inhibition at 0.05 h" result_value=20
compound="Cc1c(Br)cc(NC(=O)C(c2ccccc2)S(=O)(=O)O)cc1Br (stereo not drawn)" measured_on="CYP2D6 (Homo sapiens, UniProt P10635)" measured_quantity="inhibition at 0.05 h" result_value=1
compound=Cc1c(Br)cc(NC(=O)NS(=O)(=O)O)cc1Br measured_on="CYP2D6 (Homo sapiens, UniProt P10635)" measured_quantity="inhibition at 0.05 h" result_value=2

Now consider the entry below.
GET /values?readout=inhibition at 0.05 h&item= N.O=C(Nc1nc2ccccc2s1)NS(=O)(=O)O
0
